biological target: protease domain of Endotheliase-2 (ET2) (human) (UniProt Q9BYE2); test: continuous in vitro enzyme assay on rET2, Fab
Sequence (Q9BYE2 other isoform, or with tags, fused parts or gaps limits assumed): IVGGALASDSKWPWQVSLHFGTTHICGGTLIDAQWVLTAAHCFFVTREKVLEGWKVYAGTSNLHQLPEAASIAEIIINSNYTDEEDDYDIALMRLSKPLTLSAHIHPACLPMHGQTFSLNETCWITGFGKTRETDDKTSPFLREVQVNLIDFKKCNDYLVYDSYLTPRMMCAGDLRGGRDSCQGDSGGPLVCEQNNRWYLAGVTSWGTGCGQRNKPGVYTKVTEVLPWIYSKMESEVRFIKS
We begin with a simple list: items and their reported Ki.
Express the result in nM but write the number alone.

Worked examples, 3 binders total:
Fab D2 (Fab, V domains shown) VH: EVQLLESGGGLVQPGGSLRLSCAASGFTFSRYRMYWVRQAPGKGLEWVSSISPSGGDTRYADSVKGRFTISRDNSQNTLYLQMNSLRAEDTAVYYCARGGPRGNKYYFDYWGQGTLVTVSS VL: DIQMTQSPSSLSASVGDRVTITCRASQTIDNYLNWYQQKPGKAPKLVVYAASTLQTRVPSRFSGSGSGTDFTLTIDSLKPEDFATYFCQQGFSNPWTFGQGTTVAMIR :: 0.095
Fab A2 (Fab, V domains shown) VH: EVQLLESGGGLVQPGGSLRLSCAASGFTFSRYRMYWVRQAPGKGLEWVSSISPSGGDTRYADSVKGRFTISRDNSQNTLYLQMNSLRAEDTAVYYCARGGPRGNKYYFDYWGQGTLVTVSS VL: DIQMTQSPSFLSAFVGDRVTITCRASQDIRSDLAWYQQTPGKAPKLLIYAASTLKDGAPSRFSGSGSGTEFTLTISSLHPEDLATYYCQHLNGHPAFGPGTKVNIQR :: 0.15
Fab D5 (Fab, V domains shown) VH: EVQLLESGGGLVQPGGSLRLSCAASGFTFSRYDMHWVRQAPGKGLEWVSSISSSGGYTAYADSVKGRFTISRDNSKNTLYLQMNSLRAEDTAVYYCARGARGTSQGYWGQGTLVTVSS VL: DIQMTQSPGTLSLSPGERGTLSCRASQFVSYSYLAWYQQKPGQAPRLLIYGASSRAKGIPDRFSGSGSGTDFTLTITRLEPEDFAVYYCQQYVPSVPWTFGQGTKVEVKR :: 0.07

# next binder below
Note Ki for the binder shown: Fab C9 (Fab, V domains shown) VH: EVQLLESGGGLVQPGGSLRLSCAASGFTFSRYPMFWVRQAPGKGLEWVSYISSSGGFTGYADSVKGRFTISRDNSKNTLYLQMNSLRAEDTAVYYCARGGPRGNKYYFDYWGQGTLVTVSS VL: QSVLTQPASVSGSPGQSITISCTGTSSDVGHYNYVSWYQQHPGKAPKVMIYDVSSRPSGVSDRFSGSKSGNTASLAISGLQAEDEADYYCSSYTSGDTLYVFGTGTKVTVLG
0.31
